Each entry below carries its reported GFP response vs DMSO.
Test: modulators of MEP2-GFP levels in yeast, primary screen, S. cerevisiae, multiplex flow cytometry (AID 1867);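 also: median GFP channel fluorescence of barcode-gated MEP2-GFP cells measured by flow cytometry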
Details: S. cerevisiae MEP2-GFP strain, 3 h, at 10 µM, hits give high values, 100% means same as DMSO wells
Records with an inconclusive call do not appear.
readout: GFP response vs DMSO (%)

CCCCC/C=C\C[C@H](O)/C=C/c1cccc(C[C@H](O)CCCCO)n1
111
COc1cc(C2CC(=O)NC3=C2C(=O)CC(C)(C)C3)ccc1O (stereo not drawn)
99.9
CC(=O)OCC(=O)[C@@]12OC3(CCCC3)O[C@@H]1C[C@H]1[C@@H]3CCC4=CC(=O)C=C[C@]4(C)[C@@]3(F)[C@@H](O)C[C@@]12C
96.9
COc1ccccc1C(=O)c1cc2ccc(O)cc2oc1=O
110
O=C(CC(C(=O)O)c1c[nH]c2ccccc12)c1ccccc1 (stereo not drawn)
109
CC1(C(=O)O)CCC(C(=O)NC2CCCCCC2)C1(C)C (stereo not drawn)
106
CC(NCCC(c1ccccc1)c1ccccc1)c1ccccc1 (stereo not drawn)
122
OC(CCN1CCCCC1)(c1ccccc1)C1CCCCC1 (stereo not drawn)
102
O=C(CCCCC(=O)NC1CCCC1)NC1CCCC1
102
O=C(/C=C/c1ccc(Cl)cc1)NCCc1ccccc1
92.8
CC[n+]1c(C)sc2cc(C)ccc21
103
CC12CCC(C(=O)N3CCCCC3)([C@H](Br)C1=O)C2(C)C (stereo partly drawn)
119
NC(=O)c1c(-c2ccccc2)oc2ccc(O)cc12
97.9
Cn1c(=O)[nH]c(=O)c2c1ncn2CCN1CCOCC1
98.3
Cc1cc(-c2ccccc2)nnc1NCCN1CCOCC1
114
CN(C)c1ccc(O)c2c1CC1CC3[C@@H](N(C)C)C(=O)C(C(N)=O)=C(O)[C@]3(O)C(=O)C1=C2O (stereo partly drawn)
101
COc1ccc2oc(=O)c(-c3nc(C)cs3)cc2c1
101
CC(=O)OCC(=O)C1=CCC2C3CCC4=CC(=O)C=CC4(C)C3(F)C(OC(C)=O)CC12C (stereo not drawn)
101
CNCCCC12CCC(c3ccccc31)c1ccccc12
107
Nc1nc2c(ncn2COC(CO)CO)c(=O)[nH]1
106
CCOc1ccc(NC(=O)N[C@@H](CCSC)C(=O)OC)cc1
106
CC(C)[N+]1(C)[C@@H]2CC[C@H]1CC(OC(=O)C(CO)c1ccccc1)C2 (stereo partly drawn)
95.9
Cc1ccccc1-c1coc2cc(O)ccc2c1=O
96.9
